Biological target: PI3Kα (Homo sapiens, UniProt P42336)
Construct: Full length p110 subunits of PI3K α, β and δ, N-terminally labeled with polyHis tag; polyHis (N)
Sequence (P42336 whole entry, species assumed): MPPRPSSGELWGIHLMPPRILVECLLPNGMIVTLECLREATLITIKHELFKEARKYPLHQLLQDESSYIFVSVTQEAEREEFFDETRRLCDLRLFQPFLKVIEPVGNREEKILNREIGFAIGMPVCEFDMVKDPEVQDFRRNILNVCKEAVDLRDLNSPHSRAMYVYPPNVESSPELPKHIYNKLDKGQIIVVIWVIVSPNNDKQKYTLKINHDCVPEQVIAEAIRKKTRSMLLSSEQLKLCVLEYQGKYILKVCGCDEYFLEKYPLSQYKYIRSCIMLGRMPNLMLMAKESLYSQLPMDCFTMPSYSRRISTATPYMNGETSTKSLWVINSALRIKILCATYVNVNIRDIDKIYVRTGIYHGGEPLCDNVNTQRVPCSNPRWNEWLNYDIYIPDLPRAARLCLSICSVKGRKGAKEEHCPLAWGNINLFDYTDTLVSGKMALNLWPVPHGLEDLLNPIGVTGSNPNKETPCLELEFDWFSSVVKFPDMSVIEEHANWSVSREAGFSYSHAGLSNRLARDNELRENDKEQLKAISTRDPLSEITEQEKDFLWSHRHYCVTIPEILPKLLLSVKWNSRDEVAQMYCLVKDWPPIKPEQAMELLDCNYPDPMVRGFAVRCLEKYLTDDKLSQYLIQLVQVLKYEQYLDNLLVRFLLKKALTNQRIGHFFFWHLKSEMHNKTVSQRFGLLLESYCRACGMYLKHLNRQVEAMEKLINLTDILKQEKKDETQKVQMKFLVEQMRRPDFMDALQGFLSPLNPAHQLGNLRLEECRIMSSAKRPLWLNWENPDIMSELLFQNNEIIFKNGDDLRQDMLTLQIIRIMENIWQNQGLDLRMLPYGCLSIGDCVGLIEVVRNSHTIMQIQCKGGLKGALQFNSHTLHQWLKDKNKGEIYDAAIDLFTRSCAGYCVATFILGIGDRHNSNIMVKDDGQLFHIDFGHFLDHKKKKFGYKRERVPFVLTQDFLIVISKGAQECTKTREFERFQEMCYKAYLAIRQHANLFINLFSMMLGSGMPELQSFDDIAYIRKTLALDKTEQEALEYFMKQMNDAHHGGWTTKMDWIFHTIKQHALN
Sequence (P27986 whole entry partner, species assumed): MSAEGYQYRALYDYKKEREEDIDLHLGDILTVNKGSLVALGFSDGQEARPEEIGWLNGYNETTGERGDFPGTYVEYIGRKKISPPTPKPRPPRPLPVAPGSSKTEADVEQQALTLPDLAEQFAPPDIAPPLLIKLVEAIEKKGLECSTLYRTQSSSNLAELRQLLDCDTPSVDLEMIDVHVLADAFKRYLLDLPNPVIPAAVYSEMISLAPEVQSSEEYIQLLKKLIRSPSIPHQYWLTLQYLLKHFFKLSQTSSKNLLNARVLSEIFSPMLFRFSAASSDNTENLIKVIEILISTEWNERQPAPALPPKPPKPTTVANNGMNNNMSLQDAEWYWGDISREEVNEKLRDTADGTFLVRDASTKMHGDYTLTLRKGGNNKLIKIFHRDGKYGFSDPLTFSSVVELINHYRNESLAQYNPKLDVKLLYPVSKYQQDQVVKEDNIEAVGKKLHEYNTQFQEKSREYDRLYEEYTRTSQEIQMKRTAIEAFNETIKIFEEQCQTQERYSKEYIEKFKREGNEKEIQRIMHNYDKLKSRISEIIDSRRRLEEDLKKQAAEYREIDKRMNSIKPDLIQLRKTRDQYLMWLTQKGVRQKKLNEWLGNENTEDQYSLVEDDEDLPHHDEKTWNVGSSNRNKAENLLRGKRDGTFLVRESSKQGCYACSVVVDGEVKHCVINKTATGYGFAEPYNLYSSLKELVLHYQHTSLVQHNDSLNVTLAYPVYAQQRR
Assay: In vitro PI3 kinase enzyme assay (PI3K ATPLoss)
Conditions: recombinant p110α/p85, residual ATP by bioluminescence
valueKind: IC50 (nM)

Check out these entries, answers already filled in.
CNC(C)c1ccc(S(=O)(=O)Nc2cc(-c3ccc4nc(NC(C)=O)cn4n3)cnc2Cl)cc1 (single isomer, unassigned) [Example 38]    6
CC(=O)Nc1nc2ccc(-c3cnc(Cl)c(NS(C)(=O)=O)c3)nn2c1-c1ccncc1 [Example 26]    9
CC(=O)Nc1cn2nc(-c3cccc(NS(=O)(=O)c4ccc(C)cc4)c3)ccc2n1 [Example 1]    55
CS(=O)(=O)Nc1cc(-c2ccc3nc(N)c(-c4ccc(F)c(C(=O)O)c4)n3n2)cnc1Cl [Example 25]    1170
CC(=O)Nc1cn2nc(-c3ccnc(Sc4ccccc4F)c3)ccc2n1 [Example 4]    77

(I) CC(=O)Nc1cn2cc(-c3cncc(NS(=O)(=O)C4CC4)c3)ccc2n1 [Example 16]
(II) CC(=O)Nc1nc2cc(-c3cnc(Cl)c(NS(=O)(=O)c4ccc(F)cc4)c3)ccc2[nH]1 [Example 30]
(Q) Among I and II , which shows a numerically higher IC50 result? Answer by stating the label of the chosen item.
(A) I
(I: 19 nM, II: 12 nM)

---

Target: PI3Kα (Homo sapiens, UniProt P42336)
Construct: Full length p110 subunits of PI3K α, β and δ, N-terminally labeled with polyHis tag; polyHis (N)
Assay: In vitro PI3 kinase enzyme assay (PI3K ATPLoss)
Settings: recombinant p110α/p85, residual ATP by bioluminescence
pIC50: −log10 of the molar value.
valueKind: pIC50

(A) Nc1cn2cc(-c3cnc(Cl)c(NS(=O)(=O)c4ccc(F)cc4)c3)ccc2n1
(B) CS(=O)(=O)Nc1cc(-c2ccc3nc(N)c(-c4cccc(F)c4)n3n2)cnc1Cl
(C) CC(=O)Nc1cn2nc(-c3ccnc(F)c3)ccc2n1
(Q) // sort entries: pIC50, high to low Please list each label once, in the requested order.
(A) A, B, C

---

Target: PI3Kα (Homo sapiens, UniProt P42336)
Construct: Full length p110 subunits of PI3K α, β and δ, N-terminally labeled with polyHis tag; polyHis (N)
Experiment: In vitro PI3 kinase enzyme assay (PI3K ATPLoss)
Conditions: recombinant p110α/p85, residual ATP by bioluminescence
valueKind: IC50 (nM)

Observe how each entry below is paired with its result.
CC(=O)Nc1cn2nc(-c3cncc(S(C)(=O)=O)c3)ccc2n1 [Example 10]    104
COc1ccc(-c2ccc3nc(NC(C)=O)cn3n2)cc1OC [Example 43]    44
CS(=O)(=O)Nc1cc(-c2ccc3nc(N)c(-c4ccncc4)n3n2)cnc1Cl [Example 27]    154
CC(=O)Nc1cn2cc(-c3ccnc(Cl)n3)ccc2n1 [Example 53]    1860

(I) CNC(C)c1ccc(S(=O)(=O)Nc2cc(-c3ccc4nc(NC(C)=O)cn4n3)cnc2Cl)cc1 (single isomer, unassigned) [Example 39]
(II) CC(=O)Nc1cn2cc(-c3cncc(NS(C)(=O)=O)c3)ccc2n1 [Example 17]
(III) CSc1cncc(-c2ccc3nc(NC(C)=O)cn3n2)c1 [Example 8]
(Q) I would appreciate it if you could sort these 3 compounds by IC50, starting from the smallest number. Present the labels in the sequence the task asks for.
(A) I, II, III
(I: 8 nM, II: 37 nM, III: 60 nM)

(P) CC(=O)Nc1cn2nc(-c3cnc(Cl)c(NS(C)(=O)=O)c3)ccc2n1 [Example 19]
(Q) CC(=O)Nc1cn2nc(-c3cccc(N)c3)ccc2n1 [Example 5]
(Q) Could you please tell me which of these two has the higher IC50: P or Q ? Provide the label of your selected option as the answer.
(A) Q

---

Molecular target: PI3Kα (Homo sapiens)
Construct: Full length p110 subunits of PI3K α, β and δ, N-terminally labeled with polyHis tag; polyHis (N)
Assay: In vitro PI3 kinase enzyme assay (PI3K ATPLoss)
Conditions: recombinant p110α/p85, residual ATP by bioluminescence
Procedure: Full length p110 subunits of PI3K α, β and δ, N-terminally labeled with polyHis tag, can be co-expressed with p85 with Baculo virus expression vectors in sf9 insect cells. […] PI3K enzyme assays (alpha, beta, delta and gamma) can be performed in 25 μL with the above final concentrations of components in white polyproplyene plates. […] The compound in DMSO (1 μL) may be added per test well, and the inhibition relative to reactions containing no compound, with and without enzyme can be determined. […]
pIC50: −log10 of the molar value.
valueKind: pIC50

Answered examples (5):
Nc1nc2ccc(-c3cnc(Cl)c(NS(=O)(=O)c4ccc(F)cc4)c3)cc2n1-c1ccccn1    8.10
CC(=O)Nc1cn2nc(-c3cc(NS(=O)(=O)c4ccc(F)cc4)c(Cl)nn3)ccc2n1    6.16
CC(=O)Nc1cn2cc(-c3cncc(NCCC(C)(C)C)c3)ccc2n1    6.68
CC(=O)Nc1cn2nc(-c3cccc(N(C)S(=O)(=O)c4ccc(C)cc4)c3)ccc2n1    7.01
CC(=O)Nc1cn2nc(-c3cnc(Cl)c(NS(=O)(=O)N4CCOCC4)c3)ccc2n1    8.22

(1) COc1cc(-c2ccc3nc(NC(C)=O)cn3n2)cnc1OC
(2) CC(=O)Nc1cn2nc(-c3cnc(Cl)c(NS(=O)(=O)c4ccc(C(C)(C)O)cc4)c3)ccc2n1
(3) CC(=O)Nc1cn2nc(-c3cccc(NS(=O)(=O)c4cccc5cnccc45)c3)ccc2n1
(4) CC(=O)Nc1nc2ccc(-c3cnc(Cl)c(NS(C)(=O)=O)c3)nn2c1I
(5) CC(=O)Nc1cn2cc(-c3cncc(N)c3)ccc2n1
(Q) Task for the reader: rank each entry by its pIC50, from the minimum upward. To answer, write out the labels according to the requested order.
(A) 5, 3, 4, 1, 2
(5: 6.67, 3: 7.02, 4: 7.48, 1: 7.85, 2: 8.22)

(P) CC(=O)Nc1nc2ccc(-c3cnc(Cl)c(NS(C)(=O)=O)c3)nn2c1-c1cccc(F)c1
(Q) CC(=O)Nc1cn2cc(-c3cnc(Cl)c(NS(=O)(=O)c4ccc(F)cc4)c3)ccc2n1
(R) CC(=O)Nc1cn2nc(-c3cnc(Cl)c(NS(=O)(=O)c4ccc(F)cc4Cl)c3)ccc2n1
(S) Nc1cn2nc(-c3cnc(Cl)c(NS(=O)(=O)c4ccc(F)cc4)c3)ccc2n1
(Q) Reorder the items by pIC50, least to greatest. Arrange the labels as the request states and list them.
(A) S, P, Q, R

(I) CC(=O)Nc1cn2nc(-c3cnc(Cl)c(NS(=O)(=O)c4c(C)cccc4Cl)c3)ccc2n1
(II) CC(=O)Nc1cn2nc(-c3cccc(NS(=O)(=O)c4cccc5ccccc45)c3)ccc2n1
(Q) Task for the reader: decide whether I or II has the larger pIC50. Kindly give the label for the entry you pick.
(A) I
(I: 8.15, II: 7.21)
